Data origin: PubChem BioAssay AID430

# PROCEDURE TEXT: cytotoxicity in HPDE-C7 cells, cell-based, fluorescence, HTS (AID 430);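 further: cells exposed to compound for 48 hours before viability readout; 0% = vehicle and 100% = reference cytotoxic drug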
# MEASUREMENT PARAMETERS: HPDE-C7 pancreatic duct cells viability, at 10 µM, stronger effect = higher value
The whole screen tested about 63,000 compounds, of which about 1,100 (1.7%) were called active. The list comes from a sample in which actives are over-represented; it also holds close analogues and randomly drawn compounds. Potency and affinity values are given separately.
Reported cytotoxicity values are given for each entry in this list.
ENDPOINT: cytotoxicity (%)

1. COc1cc(-c2nc3cnccn3c2Nc2ccccc2)ccc1O
22.1
2. N#CC1=C2SCC(O)(c3ccccc3)N2C(=O)CC1c1ccccc1 (centres undefined)
70
3. O=C(O)Cn1cc(C(=O)c2cccs2)c2ccccc21
-14
4. CCOC(=O)Cn1c(=O)oc2cc(S(=O)(=O)N3CCCc4ccccc43)ccc21
3.6
